Each recorded value in this set is attributed to the supplement of paper PMC10627819.

- System: S. aureus DSM 20231;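 note: first quartile when negative (synergy) and third quartile when positive (antagonism)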
- procedure_details: Bliss interaction score (quartile over a dose matrix) (fitness difference); higher = more antagonism (negative = synergy)
measured_endpoint: Bliss interaction score
Would you mind answering with just the numeric figure?

[
  {
    "molecule": "CC[C@H]1OC(=O)[C@H](C)[C@@H](O[C@H]2C[C@@](C)(OC)[C@@H](O)[C@H](C)O2)[C@H](C)[C@@H](O[C@@H]2O[C@H](C)C[C@H](N(C)C)[C@H]2O)[C@](C)(O)C[C@@H](C)C(=O)[C@H](C)[C@@H](O)[C@]1(C)O [Erythromycin] + CN[C@@H]1[C@H](O)[C@H](NC)[C@H]2O[C@@]3(O)C(=O)C[C@@H](C)O[C@H]3O[C@@H]2[C@H]1O [Spectinomycin]",
    "readout_value": -0.0696
  },
  {
    "molecule": "CC[C@H]1OC(=O)[C@H](C)[C@@H](O[C@H]2C[C@@](C)(OC)[C@@H](O)[C@H](C)O2)[C@H](C)[C@@H](O[C@@H]2O[C@H](C)C[C@H](N(C)C)[C@H]2O)[C@](C)(O)C[C@@H](C)C(=O)[C@H](C)[C@@H](O)[C@]1(C)O [Erythromycin] + CN(C)C(=O)C(CCN1CCC(O)(c2ccc(Cl)cc2)CC1)(c1ccccc1)c1ccccc1 [Loperamide]",
    "readout_value": 0.0888
  }
]

Inquiry: Item CN[C@@H]1[C@H](O)[C@H](NC)[C@H]2O[C@@]3(O)C(=O)C[C@@H](C)O[C@H]3O[C@@H]2[C@H]1O [Spectinomycin] + CC[C@H]1OC(=O)[C@H](C)C(=O)[C@H](C)[C@@H](O[C@@H]2O[C@H](C)C[C@H](N(C)C)[C@H]2O)[C@](C)(OC)C[C@@H](C)C(=O)[C@H](C)[C@H]2N(CCCCn3cnc(-c4cccnc4)c3)C(=O)O[C@]12C [Telithromycin] with S. aureus DSM 20231 - Bliss interaction score?
Reply text: -0.0419

====

- System: B. subtilis 168;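 note: OD595 on entry to stationary phase over no-drug wells; at most 1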
- procedure_details: fitness (endpoint OD595 vs no drug) (fraction); higher = more growth
- settings: first compound 37.5 µg/mL; partner 2.5 µg/mL; main component drawn
measured_endpoint: fitness
Would you mind answering with just the numeric figure?

Inquiry: Could you share which fitness value was measured for CC[C@H](C)[C@H](N)C1=N[C@H](C(=O)N[C@@H](CC(C)C)C(=O)N[C@H](CCC(=O)O)C(=O)N[C@H](C(=O)N[C@H]2CCCCNC(=O)[C@H](CC(N)=O)NC(=O)[C@@H](CC(=O)O)NC(=O)[C@H](Cc3cnc[nH]3)NC(=O)[C@@H](Cc3ccccc3)NC(=O)[C@H]([C@@H](C)CC)NC(=O)[C@@H](CCCN)NC2=O)[C@@H](C)CC)CS1 [Bacitracin] + Cc1ncc([N+](=O)[O-])n1CCO [Metronidazole] ?
Reply text: 0.902

====

// reported MIC for each item listed
- Test system: S. pneumoniae D39V
Give the value, in units of µg/mL, as a plain number.

[
  {
    "query_smiles": "CO[C@H]1/C=C/O[C@@]2(C)Oc3c(C)c(O)c4c(O)c(c(/C=N/N5CCN(C)CC5)c(O)c4c3C2=O)NC(=O)/C(C)=C\\C=C\\[C@H](C)[C@H](O)[C@@H](C)[C@@H](O)[C@@H](C)[C@H](OC(C)=O)[C@@H]1C",
    "system_name": "S. pneumoniae D39V",
    "scale_unit": "µg/mL",
    "MIC": 0.4
  }
]

Inquiry: Could you share which MIC value was measured for CC[C@H]1OC(=O)[C@H](C)[C@@H](O[C@H]2C[C@@](C)(OC)[C@@H](O)[C@H](C)O2)[C@H](C)[C@@H](O[C@@H]2O[C@H](C)C[C@H](N(C)C)[C@H]2O)[C@](C)(O)C[C@@H](C)C(=O)[C@H](C)[C@@H](O)[C@]1(C)O ?
Reply text: 0.123
